Sourced from patent US20250250357A1

Target or test system: T1, human MSLN-R2-his protein (human, UniProt Q13421 391-486)
T1 construct: also called human MSLN-R2 protein; hMSLN-R2-his; not shown: His tag
T1 sequence (Q13421 other isoform, or with tags, fused parts or gaps): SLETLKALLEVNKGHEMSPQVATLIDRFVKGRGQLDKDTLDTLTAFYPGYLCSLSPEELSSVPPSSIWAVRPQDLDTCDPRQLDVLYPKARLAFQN
Protocol: ELISA, coated antigen; antibody 0.01 nM
Parameter measured: OD450 (OD450)

# Binder, Unit tag, Assay result
data = [
    ("S009-F3.7.3 (antibody, human IgG1, kappa, V domains shown, Human-murine chimeric antibody: murine VH/VL on human IgG1 heavy chain constant region and human kappa constant region) VH: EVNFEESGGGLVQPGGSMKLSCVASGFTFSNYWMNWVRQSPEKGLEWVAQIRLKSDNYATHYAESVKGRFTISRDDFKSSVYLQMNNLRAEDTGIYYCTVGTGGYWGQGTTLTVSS VL: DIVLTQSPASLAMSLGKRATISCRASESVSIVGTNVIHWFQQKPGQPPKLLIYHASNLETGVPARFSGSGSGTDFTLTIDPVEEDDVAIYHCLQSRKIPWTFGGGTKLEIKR", "OD450", 0.06),
]
